# System name: human Yes (Homo sapiens, UniProt P07947)
# Sequence (P07947 whole entry): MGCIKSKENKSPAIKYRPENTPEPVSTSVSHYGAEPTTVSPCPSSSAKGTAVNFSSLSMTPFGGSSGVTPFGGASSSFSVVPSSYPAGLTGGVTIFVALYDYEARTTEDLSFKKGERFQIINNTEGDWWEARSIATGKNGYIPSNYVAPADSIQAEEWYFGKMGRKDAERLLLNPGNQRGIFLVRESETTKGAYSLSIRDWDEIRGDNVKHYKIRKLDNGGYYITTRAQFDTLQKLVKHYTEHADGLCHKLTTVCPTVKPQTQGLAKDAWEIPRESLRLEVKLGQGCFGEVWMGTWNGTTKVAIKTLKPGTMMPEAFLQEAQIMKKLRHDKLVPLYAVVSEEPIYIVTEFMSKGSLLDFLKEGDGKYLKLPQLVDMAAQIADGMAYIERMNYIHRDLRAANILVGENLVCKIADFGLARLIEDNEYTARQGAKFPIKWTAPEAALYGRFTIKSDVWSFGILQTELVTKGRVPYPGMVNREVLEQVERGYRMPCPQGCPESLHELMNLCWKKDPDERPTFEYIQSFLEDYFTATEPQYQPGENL
# Procedure summary: Yes kinase inhibition, luciferase-based residual ATP (KinaseGlo)
# Condition summary: recombinant human Yes, ATP 3 μM, PTK2 substrate, 90 minutes at room temperature
pIC50: −log10 of the molar value.
Quantity measured: pIC50

a = O=C(Nc1cnc(Nc2cccc(OCCN3CCCC3)c2)nc1)c1c(Cl)cccc1Cl [drawing 202]
b = O=C(Nc1cnc(Nc2ccc(CCCN3CCCC3)cc2)nc1)c1c(Cl)cccc1Cl
Challenge: Please let me know which one, a or b , has a lower measured pIC50 value. Respond with the label that goes with your answer.
Response given: b
(b: 7.59, a: 8.10)
